Where do these numbers come from? They come from the supplement of paper PMC10567573.

B1: TEKT4 (parent)
chain: LREKLLEAEQSLRNLEDIHMSLEK

# Variants of: B1
# RUN_DESCRIPTION: protein stability index of a GFP-peptide fusion (GPS, HEK-293T) (PSI 1-6); higher = more stable;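 also: lentivirally expressed fusions sorted by FACS into six bins by GFP to DsRed ratio, PSI derived from sequencing read proportions per bin multiplied by bin number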
# SETTINGS: c terminus: a fixed tail appended
Lab note: compare protein stability index against 3. Equal or greater, write true (1). Smaller, write false (0).

Answer whether protein stability index of L15G is greater than or equal to 3.
false (0)

Answer whether protein stability index of E3P is greater than or equal to 3.
false (0)

Answer whether protein stability index of E9R is greater than or equal to 3.
true (1)

Answer whether protein stability index of N14D is greater than or equal to 3.
false (0)

Answer whether protein stability index of E3N is greater than or equal to 3.
false (0)

Answer whether protein stability index of N14R is greater than or equal to 3.
false (0)

Answer whether protein stability index of L5F is greater than or equal to 3.
true (1)

Answer whether protein stability index of K4W is greater than or equal to 3.
false (0)

Answer whether protein stability index of R13P is greater than or equal to 3.
false (0)

Answer whether protein stability index of S11P is greater than or equal to 3.
true (1)

Answer whether protein stability index of L15Y is greater than or equal to 3.
false (0)

Answer whether protein stability index of L1Y is greater than or equal to 3.
false (0)

Answer whether protein stability index of L22H is greater than or equal to 3.
false (0)

Answer whether protein stability index of E9V is greater than or equal to 3.
false (0)

Answer whether protein stability index of L22G is greater than or equal to 3.
false (0)

Answer whether protein stability index of I18D is greater than or equal to 3.
true (1)

Answer whether protein stability index of E7W is greater than or equal to 3.
false (0)

Answer whether protein stability index of E9Y is greater than or equal to 3.
false (0)

Answer whether protein stability index of L5W is greater than or equal to 3.
true (1)

Answer whether protein stability index of K24E is greater than or equal to 3.
false (0)
